Origin of the recorded values: ChEMBL document CHEMBL1201862

System: MDA-MB-435
measurementProtocol: NCI tumour cell line growth inhibition, 48 h
The source made the active and inactive calls. Rule as the data show it: active = GI50 up to about 1.1 µM and inactive = higher.
assayEndpoint: GI50

> print(dat)
                                   molecule       endpointresult
1  O=C(O)CCC(NC(=O)c1ccc(Nc2nc3cc(C(F)(F)F)ccc3nc2C(=O)O)cc1)C(=O)O (stereo not given)  > 100 µM (inactive)
2  Cc1ccnc(NC(=S)Nc2ccc([N+](=O)[O-])cc2)c1  > 100 µM (inactive)
3    COc1ccc(/C(C)=C2\CCCN(Cc3ccccc3)C2)cc1   20.7 µM (inactive)
4                        N#CC(C#N)=CNC(N)=S  > 100 µM (inactive)
5  COC(=O)[C@]1(C)CCC[C@]2(C)[C@H]3CC[C@]4(C(C)C)OO[C@@H](O4)[C@]34O[C@@H]4C[C@H]21   1.79 µM (inactive)

###

System: SK-OV-3
measurementProtocol: NCI tumour cell line growth inhibition, 48 h
Calls of active or inactive are those of the source. No stated cut-off is given here; in the data, active = GI50 up to about 1.1 µM and inactive = higher.

molecule	GI50
Cc1c(-c2ccccc2)n(C)c2cn[nH]c(=O)c12	27.1 µM (inactive)
NS(=O)(=O)c1ccc(NC(=S)NC=C2C(=O)c3ccccc3C2=O)cc1	> 100 µM (inactive)
CC(=O)O[C@H]1C(=O)[C@@]2(C)C(C(OC(=O)c3ccccc3)C3[C@@H](O)C(OC(=O)[C@@H](O)[C@H](NC(=O)c4ccccc4)c4ccc(C(F)(F)F)cc4)C(C)=C1C3(C)C)[C@]1(OC(C)=O)CO[C@@H]1C[C@@H]2O (stereo partly drawn)	> 25 µM (inactive)
CCOc1ccc2c(c1)NC(=O)C(C1OC(c3ccccc3)=CC1=O)S2 (stereo not drawn)	16.1 µM (inactive)
CO[C@]12CC(=O)C3(C(C[C@H]4CC5CC[C@H]6C[C@@H](OC(C)=O)CC[C@]6(OC(C)=O)C5C[C@@]43C)C1)C1C[C@H]3[C@@H]4CC[C@H]5C[C@@H](OC(C)=O)CC[C@]5(OC(C)=O)[C@H]4CC[C@]3(C)C12 (stereo partly drawn)	> 100 µM (inactive)
O=c1nc2sc3ccc4ccccc4c3n2nc1O	> 100 µM (inactive)
O=C1CCC2(c3ccccc3)Nc3ccncc3N12 (stereo not drawn)	3.49 µM (inactive)
N#CC(NNC(=O)Cc1ccccc1)c1ccccc1O (stereo not drawn)	14.5 µM (inactive)

###

Each entry below lists one item and its recorded GI50 value.
Tested on: NCI-H522
measurementProtocol: NCI tumour cell line growth inhibition, 48 h
Active and inactive are the calls of the source. Cut-off read from the data, not from the text of the source: active = GI50 up to about 1.1 µM and inactive = higher.
assayEndpoint: GI50

> print(dat)
                                   molecule       endpointresult
1  Cc1cc(C)c([S@@](=O)O[C@@H]2[C@H]3OC(C)(C)O[C@H]3O[C@@H]2[C@H]2COC(C)(C)O2)c(C)c1   8.65 µM (inactive)
2  CCCCCCCC(=O)OC[n+]1ccc(-c2c(COC(=O)NC(C)C)c(COC(=O)NC(C)C)c3n2CCC3)cc1   26.4 µM (inactive)
3  C[C@]12CCC(=O)C=C1CC[C@@H]1[C@@H]2[C@@H](O)C[C@@]2(C)[C@H]1CC[C@]2(O)C(=O)CO [HYDROCORTISONE]  > 100 µM (inactive)
4  COC(=O)CCC(=O)c1ccc2c(c1)CC1(C2)Cc2ccc(C(=O)CCC(=O)OC)cc2C1   55.1 µM (inactive)
